Where these numbers come from: patent US20220117938A1

- Test system: Ninety four (94) cell lines and PBMC
- ASSAY METHOD TEXT: Cell viability assay, SRB staining, 94 cell lines and PBMC (Example 7, Experiment 2)
- Assay type: cell-based
- CONDITION: J82, bladder
IC50 values for the molecules below.
Quick note: give the figure in µM, leave out the unit.

| MOLECULE | PROPERTY NAME | NUMERIC READOUT |
| --- | --- | --- |
| [N-]=[N+]=CC(=O)CC[C@H](N)C(=O)O [DON, 6-Diazo-5-oxo-L-norleucine, reference compound] | IC50 | 28.9 |

Attention now shifts to the item below.
input: Endpoint output: IC50 of CC(=O)N[C@@H](Cc1c[nH]c2ccccc12)C(=O)N[C@@H](CCC(=O)C=[N+]=[N-])C(=O)OC(C)C . Value?
output: 15.9

###

- Tested on: Ninety four (94) cell lines and PBMC
- ASSAY METHOD TEXT: Cell viability assay, SRB staining, 94 cell lines and PBMC (Example 7, Experiment 2)
- Assay type: cell-based
- CONDITION: Homo sapiens, UMUC3, UMUC3, bladder
- Description: Ninety four (94) cell lines were seeded at a density varying from 500 to 7000 cells/well depending on their growth characteristics. PBMC were seeded at the density 50,000-100,000 cells/well. Cells were incubated for 48 h prior to compound treatment. Compound 1 and DON were evaluated at a concertation range of 1 nM up to 100 μM. […] Optical density was measured at 492, 520 and 560 nm using a Deelux-LED96 plate reader (Deelux Labortechnik GmbH, Germany). […]
PROPERTY NAME: pIC50
Keep it numeric: pIC50 is minus log10 of the concentration in mol/L.

| MOLECULE | PROPERTY NAME | NUMERIC READOUT |
| --- | --- | --- |
| CC(=O)N[C@@H](Cc1c[nH]c2ccccc12)C(=O)N[C@@H](CCC(=O)C=[N+]=[N-])C(=O)OC(C)C [Compound 1] | pIC50 | 5.56 |

input: Endpoint output: pIC50 of [N-]=[N+]=CC(=O)CC[C@H](N)C(=O)O [DON, 6-Diazo-5-oxo-L-norleucine, reference compound] . Value?
output: 5.56

###

- System: Ninety four (94) cell lines and PBMC
- ASSAY METHOD TEXT: Cell viability assay, SRB staining, 94 cell lines and PBMC (Example 7, Experiment 2)
- Assay type: cell-based
- CONDITION: Homo sapiens, U2OS, bone
- Experimental: Ninety four (94) cell lines were seeded at a density varying from 500 to 7000 cells/well depending on their growth characteristics. PBMC were seeded at the density 50,000-100,000 cells/well. Cells were incubated for 48 h prior to compound treatment. Compound 1 and DON were evaluated at a concertation range of 1 nM up to 100 μM. […] Optical density was measured at 492, 520 and 560 nm using a Deelux-LED96 plate reader (Deelux Labortechnik GmbH, Germany). […]
IC50 values for the molecules below.
Quick note: give the figure in µM, leave out the unit.

| MOLECULE | IC50 (µM) |
| --- | --- |
| CC(=O)N[C@@H](Cc1c[nH]c2ccccc12)C(=O)N[C@@H](CCC(=O)C=[N+]=[N-])C(=O)OC(C)C | 12.9 |

Attention now shifts to the item below.
input: Give recorded IC50 with Ninety four (94) cell lines and PBMC for the following molecule: [N-]=[N+]=CC(=O)CC[C@H](N)C(=O)O [DON, 6-Diazo-5-oxo-L-norleucine, reference compound]
output: 8.4

###

- System: Ninety four (94) cell lines and PBMC
- ASSAY METHOD TEXT: Cell viability assay, SRB staining, 94 cell lines and PBMC (Example 7, Experiment 2)
- Format: cell-based
- CONDITION: Homo sapiens, MIA PaCa-2, MIAPACA2, pancreas
PROPERTY NAME: pIC50
Keep it numeric: pIC50 is minus log10 of the concentration in mol/L.

| COMPOUND | pIC50 |
| --- | --- |
| [N-]=[N+]=CC(=O)CC[C@H](N)C(=O)O [DON, 6-Diazo-5-oxo-L-norleucine, reference compound] | 5.45 |

Attention now shifts to the item below.
input: Endpoint output: pIC50 of CC(=O)N[C@@H](Cc1c[nH]c2ccccc12)C(=O)N[C@@H](CCC(=O)C=[N+]=[N-])C(=O)OC(C)C . Value?
output: 5.45

###

- Test system: Cells
- ASSAY METHOD TEXT: Cell viability, CTG luminescence, 72 h (Example 7, Experiment 1)
- Format: cell-based
- CONDITION: Homo sapiens, T98G
- Description: Cells were cultured in the appropriate medium at 37° C. and 5% CO2 atmosphere. Cells were harvested by trypsinization, spun at 800 rpm for 5 min and resuspended in medium. The cell concentration was adjusted with medium and seeded at a cell density of 3000 cells in 90 μL per well in 96-well plates, and incubated overnight at 37° C. and 5% CO2. […] Luminescence was recorded on Perkin Elmer Envision 2104 Multilabel Reader. […]
PROPERTY NAME: IC50 (µM)
Quick note: give the figure in µM, leave out the unit.

| COMPOUND | NUMERIC READOUT |
| --- | --- |
| [N-]=[N+]=CC(=O)CC[C@H](N)C(=O)O [DON, 6-Diazo-5-oxo-L-norleucine, reference compound] | 1.38 |

input: Endpoint output: IC50 of CC(=O)N[C@@H](Cc1c[nH]c2ccccc12)C(=O)N[C@@H](CCC(=O)C=[N+]=[N-])C(=O)OC(C)C . Value?
output: 3.39

###

- Test system: Cells
- ASSAY METHOD TEXT: Cell viability, CTG luminescence, 72 h (Example 7, Experiment 1)
- Assay type: cell-based
- CONDITION: U266B1
PROPERTY NAME: pIC50
Keep it numeric: pIC50 is minus log10 of the concentration in mol/L.

| COMPOUND | pIC50 |
| --- | --- |
| CC(=O)N[C@@H](Cc1c[nH]c2ccccc12)C(=O)N[C@@H](CCC(=O)C=[N+]=[N-])C(=O)OC(C)C [Compound 1] | 6.35 |

Attention now shifts to the item below.
input: Endpoint output: pIC50 of [N-]=[N+]=CC(=O)CC[C@H](N)C(=O)O [DON, 6-Diazo-5-oxo-L-norleucine, reference compound] . Value?
output: 6.38
